Test system: Saccharomyces cerevisiae
method_description: protein stability index of tFT-peptide fusion (C-terminal peptide) (PSI (0-1 scale)); higher = more stable (slower turnover)
reported_conditions: genetic background: wild type; temperature: 30 C
Assign 1.0 whenever protein stability index does not fall below 0.7; assign 0.0 whenever it does.

Tell me whether protein stability index is at least 0.7 here: EEEGRRREEETS
0.0

Tell me whether protein stability index is at least 0.7 here: PPSPHHPPPPAL
1.0

Tell me whether protein stability index is at least 0.7 here: MGGCGARAVVVG
0.0

Tell me whether protein stability index is at least 0.7 here: AREGGGRAGRRE
1.0

Tell me whether protein stability index is at least 0.7 here: VSLVDRFVLAIV
0.0

Tell me whether protein stability index is at least 0.7 here: NIIRGVIAGNPA
1.0

Tell me whether protein stability index is at least 0.7 here: RSPRSSSPHPIY
1.0

Tell me whether protein stability index is at least 0.7 here: FGVVLEGAGWGG
1.0

Tell me whether protein stability index is at least 0.7 here: GPDSSYLITPRR
1.0

Tell me whether protein stability index is at least 0.7 here: AYSMMNLYNFAL
0.0

Tell me whether protein stability index is at least 0.7 here: RLDGVTPVRTCL
0.0

Tell me whether protein stability index is at least 0.7 here: GMRILRLIHVIP
0.0

Tell me whether protein stability index is at least 0.7 here: PPRPRRPLHRSS
0.0

Tell me whether protein stability index is at least 0.7 here: KRNKKCKKIKKK
0.0

Tell me whether protein stability index is at least 0.7 here: PPPPAVPPSPPP
0.0

Tell me whether protein stability index is at least 0.7 here: PLGPPPPPPLPS
1.0

Tell me whether protein stability index is at least 0.7 here: SRGVSIQQSIKI
1.0

Tell me whether protein stability index is at least 0.7 here: GVWGVGGGGGGR
0.0

Tell me whether protein stability index is at least 0.7 here: GWGGAGGGGGRV
0.0

====

Tested on: Saccharomyces cerevisiae
method_description: protein stability index of tFT-peptide fusion (C-terminal peptide) (PSI (0-1 scale)); higher = more stable (slower turnover)
reported_conditions: genetic background: wild type; temperature: 30 C
Let's look at some sequences and their measured protein stability index.

Notebook: EVGWMPFYLVGL , protein stability index read as 0.67

Notebook: EDMRGATGRGAG , protein stability index read as 0.669

Notebook: CEAWLTDEGLRD , protein stability index read as 0.742

====

Test system: Saccharomyces cerevisiae
method_description: protein stability index of tFT-peptide fusion (C-terminal peptide) (PSI (0-1 scale)); higher = more stable (slower turnover)
reported_conditions: genetic background: wild type; temperature: 30 C
Assign label 1 whenever protein stability index does not fall below 0.7; assign label 0 whenever it does.

Examples with answers:
| sequence_chain | label |
| --- | --- |
| GGFSTEFNSCDT [MLF3 C-terminal 12 aa] | label 1 |
| IVTEWVKKPCLC [MUP3 C-terminal 12 aa] | label 0 |
| IKKRKVQNRAMS [YOL038C-A C-terminal 12 aa] | label 1 |
| ISVYCGTTLEVM [TFC8 C-terminal 12 aa] | label 0 |

Read the next record carefully.
Tell me whether protein stability index is at least 0.7 here: STHGPGIVIDFA [MRPL1 C-terminal 12 aa]
label 1

All figures here come from the supplement of paper PMC10724198.
